target: G1 APOL1 (Homo sapiens, UniProt O14791, I384M/S342G); construct: expressed in transfected cells; test: Acute APOL1 Thallium Assay with Inducible Stable Clones of HEK 293 Cells; assay type: cell-based; settings: HEK 293 inducible stable clones, G1 APOL1; read-out: Thallium Assay (IC50)
Sequence (O14791 28-398 S342G/I384M): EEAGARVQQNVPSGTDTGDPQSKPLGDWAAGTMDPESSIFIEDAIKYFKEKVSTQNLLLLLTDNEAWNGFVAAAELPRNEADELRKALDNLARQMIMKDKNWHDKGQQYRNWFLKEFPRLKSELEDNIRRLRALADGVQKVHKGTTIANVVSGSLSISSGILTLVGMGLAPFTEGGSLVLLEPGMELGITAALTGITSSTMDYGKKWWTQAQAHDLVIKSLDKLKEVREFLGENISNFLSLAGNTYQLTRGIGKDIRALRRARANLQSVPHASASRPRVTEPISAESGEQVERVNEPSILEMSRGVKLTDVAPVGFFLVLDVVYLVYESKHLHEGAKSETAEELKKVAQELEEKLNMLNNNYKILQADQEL
pIC50: −log10 of the molar value.
recorded_metric: pIC50

Some solved entries appear below for comparison.
Dear colleague, please send me the reported pIC50 for O=C(NCC(O)CO)OCCc1c(-c2ccc(F)cc2)[nH]c2c(F)cc(F)cc12 (stereo not drawn) when you can.
6.00 to 6.60

Dear colleague, please send me the reported pIC50 for COCC1(NC(=O)CCc2c(-c3ccc(F)cc3)[nH]c3c(F)cc(F)cc23)CC1 when you can.
6.00 to 6.60

Dear colleague, please send me the reported pIC50 for C[C@H](NC(=O)NCCc1c(-c2ccc(F)cc2)[nH]c2c(F)cc(F)cc12)C(C)(C)O when you can.
< 6.00

Dear colleague, please send me the reported pIC50 for O=C(CCc1c(-c2ccc(F)cc2)[nH]c2ccc(F)cc12)NC1CONC1=O (stereo not drawn) when you can.
< 6.00

For each of the items listed, what is its pIC50?
1. Cc1ccnn1CCC(=O)NCCc1c(-c2ccc(F)cc2)[nH]c2c(F)cc(F)cc12
2. CN1CC(NC(=O)NCCc2c(-c3ccc(F)cc3)[nH]c3c(F)cc(F)cc23)CC1=O (stereo not drawn)

< 6.00
< 6.00
